Hello, the source for this data is paper PMC3817407, in case you need it.

Target: T1, ECF33_375
T1 chain: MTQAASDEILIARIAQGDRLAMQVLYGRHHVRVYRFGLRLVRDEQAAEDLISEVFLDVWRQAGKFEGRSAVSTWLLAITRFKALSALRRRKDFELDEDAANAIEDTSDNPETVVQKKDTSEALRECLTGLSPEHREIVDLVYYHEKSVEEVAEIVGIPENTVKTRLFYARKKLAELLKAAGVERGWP
Assign fold repression to each entry below.
Note: the reply should be a number with no unit written.

Problem: For AS22_1147 (protein) MELDDIAVAWRSLEQRLDQHAALAGQVLGDLRSHAARAHLRPLWLSQSAQLLCAIALSGLVAHSWLAFPEQAAAIVGGVLLQIWCVALAASAARQLWLLSQLDFARPLLQTQRALAQLRRWRTRVAPWLGVAFWVLWVAVADAAWRALTGRSLPYAWLLCNLLVGVLGGIGTWLGYRRLQRSGHPWLERLDTVHAGRSVARTETLLEQIARFQRE , what is its reported fold repression?
Solution: 1.26

Problem: Consider next the binder AS15_436 (protein) MAQSTEPKASPQEATAKGGDNTKGKSRKELQQQIDENLRRVYEEALVQEVPDRFAMLLDQLRQKGTGK in the same way.
Solution: 2.28

Problem: Consider next the binder AS30_35 (protein) MDKRLQQLREEYKNVQIPKELDIIVEKALQQEPKKKRIVMWPTSAAIAAAILFTALVNINPDAAQAMSKIPVIGKIVKAITFIEIKEEKDQSSIDVKTPALSGLSNKELENSINEKYLKESQQLYKEFIQSTSKNKKGHLSIYSDYETVTDTPDLLSIRRNIETTQASSYTQSRYITIDKKNDILLTLKSLFKDERYIKVISQNIKEQMKQQMKEDPNKIYWLTDEDAEPFKTILPDQTFYITEDHKLVISFDEYEVAPGYMGVTEFTIPTGVISNLLVGERYIR in the same way.
Solution: 1.3

Problem: Consider next the binder AS16_973 (protein) MKTDDLIALLAAGEGPVPRHAVGRRMAVAALGGLTAALLLTITLYGVRSDITEVAQTPLFWGKVAFPTSLALIGLWLTSRLARPGGKGAAGWKMLGLPLLLVWCGAAVSIAGAPVDARADLLFGRTWRTCALNIALLSVPAFVTVFWALKGLAPTRLRLAGAAGGLLAGSSATVAYCLHCPEMGVPFWGVWYVLGMLVPTVLGAWWGPRMLRW in the same way.
Solution: 0.373

Problem: Consider next the binder AS01_3473 (protein) MSNYDNAELLALWLEGKLTPKQRDEFEQRCIQDSQFAEQVDAAAMVKIGADDYSSSEVPQWNKAATFEPQQANNSGSWLSGVSLVTSALAIVLVLTGTQVTTSEGELRIRFGSGQSEQALVKLVDSKLDAFKQNQQDAFTLYAQTLQQQQSESASQLTNYLLSSSRKERREDFAELIKFVNQQRSDDQLFYARQLNQLQQDVYHDATGVALESIQQ in the same way.
Solution: 1.13

Problem: Consider next the binder AS15_524 (protein) MNFGVEDMIEHVPMEDKRKGAAALDEARLRQQAIGVKLRQMFDEVVNEPVPDEFLAILRKAERPAGGE in the same way.
Solution: 4.38
